Data origin, for the record: patent US11945822B2

- target_system: CDK2/Cyclin A (Homo sapiens, UniProt P24941)
- Construct: purchased Invitrogen PV6290
- method_description: Enzymatic assay for CDK2 (FRET based LANCE Ultra kinase assay)
- Format: biochemical
- reported_conditions: read-out: CDK2 enzymatic activity (IC50 range)
pIC50: −log10 of the molar value.
measured_metric: pIC50

For orientation, consider the following solved cases.
[[record]]
molecule = "Cc1ccc(-c2cc3ccccc3[nH]2)c(CNc2nc(N3CCC(N)CC3)nc3c(C(C)C)cnn23)c1"
target_system = "CDK2/Cyclin A (Homo sapiens, UniProt P24941)"
measured_metric = "pIC50"
val = "< 6.00"

[[record]]
molecule = "CC(C)c1cnn2c(NCc3ccccc3-c3ccc4ccccc4n3)nc(NCC3(O)CCNCC3)nc12"
target_system = "CDK2/Cyclin A (Homo sapiens, UniProt P24941)"
measured_metric = "pIC50"
val = "< 6.00"


In plain terms, "CC(C)c1cnn2c(NCc3c(Cl)cccc3-n3cc(N4CCOCC4)cn3)nc(N3CCC(N)CC3)nc12" has a documented pIC50 of < 6.00

In plain terms, "CC(C)c1cnn2c(NCc3c(Cl)cccc3-n3ccc(C(=O)N4CCNCC4)n3)nc(N3CCC(N)CC3)nc12" has a documented pIC50 of < 6.00
